Measured drug sensitivity score, listed per entry for reference.
System: T-47D
Assay: drug sensitivity score (DSS) (DSS (dimensionless)); higher = more sensitive; extreme values may be limits of the assay
Conditions: 4-OH-tamoxifen in medium 0 µM; 72 h
Structures can show the parent of a compound that is named as a salt.
I only need the number, thanks.

COMPOUND | drug sensitivity score
NC(=O)Nc1cc(-c2cccc(F)c2)sc1C(=O)N[C@H]1CCCNC1 | 0

Dear colleague, I am looking for the recorded drug sensitivity score of the following compound: C/C(=C\c1csc(C)n1)[C@@H]1C[C@@H]2O[C@]2(C)CCC[C@H](C)[C@H](O)[C@@H](C)C(=O)C(C)(C)[C@@H](O)CC(=O)O1 [Patupilone (Epothilone B)]
8.94

Please give the result for O=C(/C=C/c1cccc(S(=O)(=O)Nc2ccccc2)c1)NO too.
12

Please give the result for C/C(=C\c1csc(C)n1)[C@@H]1C[C@@H]2O[C@]2(C)CCC[C@H](C)[C@H](O)[C@@H](C)C(=O)C(C)(C)[C@@H](O)CC(=O)N1 [Ixabepilone] too.
1.7

Please give the result for COc1nc(N)nc2c1ncn2[C@@H]1O[C@H](CO)[C@@H](O)[C@@H]1O too.
0

Please give the result for CO[C@H](C(=O)[C@@H](O)[C@@H](C)O)[C@@H]1Cc2cc3cc(O[C@H]4C[C@@H](O[C@@H]5C[C@@H](O)[C@H](O)[C@@H](C)O5)[C@H](O)[C@@H](C)O4)c(C)c(O)c3c(O)c2C(=O)[C@H]1O[C@H]1C[C@@H](O[C@@H]2C[C@@H](O)[C@@H](O[C@@H]3C[C@](C)(O)[C@H](O)[C@@H](C)O3)[C@@H](C)O2)[C@H](O)[C@@H](C)O1 too.
18.4

Please give the result for S=P(N1CC1)(N1CC1)N1CC1 too.
0

Please give the result for O=C(CCBr)N1CCN(C(=O)CCBr)CC1 too.
0

Please give the result for Cc1c(CN2CCN(C(=O)[C@H](C)O)CC2)sc2c(N3CCOCC3)nc(-c3cnc(N)nc3)nc12 too.
14.7

Please give the result for Cn1c(=O)n(-c2ccc(C(C)(C)C#N)cc2)c2c3cc(-c4cnc5ccccc5c4)ccc3ncc21 too.
10.4

Please give the result for CC[C@H](Nc1ncnc2[nH]cnc12)c1nc2cccc(F)c2c(=O)n1-c1ccccc1 too.
0.0938

Please give the result for Cn1cnc2c(F)c(Nc3ccc(Br)cc3Cl)c(C(=O)NOCCO)cc21 too.
0

Please give the result for Cc1ccc([N+](=O)[O-])cc1S(=O)(=O)N(C)/N=C/c1cnc2ccc(Br)cn12 [PIK-75 (HCl)] too.
21.8
